Recorded Cl, one value per entry.
species on record: Rattus norvegicus; assay: Open TG-GATES - Regimen: Daily Repeat; format: toxicity, organism-based, Sprague-Dawley; design: regimen Daily Repeat, gender Male, age 6 weeks; conditions: in vivo, po, 1000 mg/kg, […], tissue Plasma, route gavage, dose level High, time 14 day
Give the value, in units of meq/L, as a plain number.

Inquiry: For the compound CCOC(=O)CCC(=O)O[C@H]1[C@H](O[C@@H]2[C@@H](C)[C@H](O[C@H]3C[C@@](C)(OC)[C@@H](O)[C@H](C)O3)[C@@H](C)C(=O)O[C@H](CC)[C@@](C)(O)[C@H](O)[C@@H](C)C(=O)[C@H](C)C[C@@]2(C)O)O[C@H](C)C[C@@H]1N(C)C [ERYTHROMYCIN ETHYLSUCCINATE] , what Cl is on record?
Reply text: 108.6

Inquiry: Now this one: COc1ccc2[nH]c([S+]([O-])Cc3ncc(C)c(OC)c3C)nc2c1 (stereo not given)
Reply text: 102.8

Inquiry: Now this one: `COC1=CC(=O)C[C@@H](C)[C@]12Oc1c(Cl)c(OC)cc(OC)c1C2=O`
Reply text: 103

Inquiry: Now this one: `NC(N)=Nc1nc(CSCCC(N)=NS(N)(=O)=O)cs1`
Reply text: 103.4

Inquiry: Now this one: CCOc1ccc(NC(=O)CC(C)O)cc1 (stereo not given)
Reply text: 105.8
